Below, each entry is listed with its recorded Percent Effect.
Biological target: Shiga toxin 2 (Escherichia coli O157:H7) (UniProt P09385+P09386)
Test: E. coli 0.157:H7 Shiga Toxin SOP - stx2 screening assay
Assay type: functional
Parameters: scale not given: direction of the effect not stated beside the values
Conditions: 30 µM
reportedEndpoint: Percent Effect (%)

> print(dat)
                                   compound                           targetundertest  experimentalresult
1  CC(C)c1ncc2c(n1)CN(Cc1cccc(OCC(N)=O)c1)CC2  Shiga toxin 2 (Escherichia coli O157:H7) (UniProt P09385+P09386)                12.8
2          COCc1cc(NCc2cc(F)ccc2F)n2nccc2n1  Shiga toxin 2 (Escherichia coli O157:H7) (UniProt P09385+P09386)               -13.4
3  Cc1c(C2CCCN(C(=O)Cc3ccccn3)C2)n2c(nc1=O)CCC2 (stereo unspecified)  Shiga toxin 2 (Escherichia coli O157:H7) (UniProt P09385+P09386)               -14.2
4  Cc1nn(C)c(N(C)C)c1CNC1CCOc2c(F)cccc21 (stereo unspecified)  Shiga toxin 2 (Escherichia coli O157:H7) (UniProt P09385+P09386)                30.8
5  CCOCC(O)CN1CCN(C(=O)c2ccnc(N(C)C)c2)CC1 (stereo unspecified)  Shiga toxin 2 (Escherichia coli O157:H7) (UniProt P09385+P09386)               -13.4
6  O=C(NCc1ccco1)[C@@H]1CCO[C@@H]2CCN(c3ccncn3)C[C@H]21  Shiga toxin 2 (Escherichia coli O157:H7) (UniProt P09385+P09386)               -15.1
